Consider the following compounds; for each one, report its Percent Effect.
- Test target: Shiga toxin 2 (Escherichia coli O157:H7) (UniProt P09385+P09386)
- Procedure summary: E. coli 0.157:H7 Shiga Toxin SOP - stx2 screening assay
- Assay type: functional
- Parameters: scale not given: direction of the effect not stated beside the values
- Condition details: 30 µM
Kindly report the value followed by its unit.

// query Percent Effect value for entry CCn1cc(N2Cc3nc(N4CCOCC4)ncc3C2=O)cn1
-20.5%

// query Percent Effect value for entry CCNc1cc2c(nn1)CCN(C(=O)c1ccc(NC3CC3)nc1)C2
2.8%

// query Percent Effect value for entry CCN(CC)C1CCN(C(=O)NCc2c(C)noc2C)CC1
-1.12%

// query Percent Effect value for entry CC(Cn1cccn1)NC(=O)Nc1nccs1 (centres undefined)
2.8%

// query Percent Effect value for entry COc1cc(N2C[C@@H]3COC[C@]3(COc3ccc(C#N)cn3)C2)ncn1
11.9%

// query Percent Effect value for entry COCCNC(=O)[C@H]1C[C@@H]2CCN(c3nncs3)C[C@H]2O1
-18.8%

// query Percent Effect value for entry CCS(=O)(=O)N1CCC[C@]2(C(=O)N(C)C)CN(c3ccccn3)C[C@@H]2C1
-10.3%

// query Percent Effect value for entry c1nc(COCC2CC2)c2n1CCCN(CC1CC1)C2
-11.2%

// query Percent Effect value for entry CCc1c(C)nc2n(c1=O)CC(C(=O)Nc1ccccc1F)CS2 (centres undefined)
-4.39%

// query Percent Effect value for entry CCN1CCC(c2nc3ccc(NC(C)C)cn3n2)CC1
4.27%

// query Percent Effect value for entry Cc1ccc(CNC(C)c2ccc3[nH]c(=O)[nH]c3c2)s1 (centres undefined)
-1.3%

// query Percent Effect value for entry COCCN1CCC(Cc2cncc(-c3ccc(C(=O)O)cc3)n2)C1 (centres undefined)
8.34%

// query Percent Effect value for entry CSCC[C@H](N)C(=O)NCc1cc2n(n1)CCCN(C(=O)C1CCC1)C2
2.24%

// query Percent Effect value for entry COc1ccccc1N1CCC(CNCc2cccc(C#N)c2)C1 (centres undefined)
2%

// query Percent Effect value for entry CC(C)C(=O)N1CCC(c2nc(O)cc(-c3ccncc3)n2)CC1
3.51%

// query Percent Effect value for entry O=C1CC[C@H]2CN(Cc3ccc(Cl)s3)CC[C@H]2N1CCc1c[nH]cn1
-115%

// query Percent Effect value for entry Cc1ccn(-c2ccccc2NCc2ccccn2)n1
4.81%

// query Percent Effect value for entry c1cnc2c(c1)cc([C@H]1CCCO1)n2CCN1CCOCC1
12.7%

// query Percent Effect value for entry CN(C)C(C(=O)N1CCC(N2CCSCC2)CC1)c1ccccc1F (centres undefined)
-3.63%

// query Percent Effect value for entry COc1ccc(CN2CCn3c(CNS(C)(=O)=O)nnc3C2)cc1
-6.04%

// query Percent Effect value for entry C1CC(CN2CCO[C@H]3[C@H](OCC4CC4)CC[C@@H]32)CCO1
-6.68%

// query Percent Effect value for entry CN(C)c1cc(C(=O)NCCc2nnc(-c3ccco3)[nH]2)ccn1
-46.4%

// query Percent Effect value for entry COCCN1CCCC(O)(CN2CCN(c3ncccc3C)CC2)C1=O (centres undefined)
-7.55%

// query Percent Effect value for entry Cc1nc(CNC(=O)NCC(O)c2ccc(F)c(F)c2)cs1 (centres undefined)
4.89%
